molecular target: Cytochrome P450 2C19 (Homo sapiens); assay: blockers of cytochrome P450 2C19 activity – biochemical, luminescence, ADME assay, primary screen (AID 778); settings: CYP2C19 Supersomes, luciferin-H EGE luminescence, 30 min; at 5 µM
Hit rate of the full screen: of about 96,000 compounds, about 20,000 (21%) were called active.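 Rule for the calls: active = CYP2C19 inhibition above a set limit at 5 µM in the primary screen (cut at about 50% in these data); inactive = the rest.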 The list is a sample of the results.
Bench note: report the call from yes = active, no = inactive

*Q* Hi, sorry to bother you, what did the test record for `CC(=O)c1c(C)n(-c2ccc(N(C)C)cc2)c2ccc(OCC(N)=O)cc12` ?
*A* no

*Q* Hi, sorry to bother you, what did the test record for Cc1cccc(NC(=O)N(Cc2cc3cc(C)cc(C)c3[nH]c2=O)CC2COCCO2)c1 (configuration not stated) ?
*A* yes

*Q* Hi, sorry to bother you, what did the test record for `COc1cc(OC)cc(C(=O)NC(=S)N2CCN(c3ccc(C(F)(F)F)cc3[N+](=O)[O-])CC2)c1` ?
*A* no

*Q* Hi, sorry to bother you, what did the test record for CCOc1cc2[nH]c(=S)n(CCN3CCCCC3C)c(=O)c2cc1OCC (configuration not stated) ?
*A* no

*Q* Hi, sorry to bother you, what did the test record for `CCOC(=O)C1CCN(C(=O)Nc2ccc(Cl)cc2)CC1` ?
*A* yes

*Q* Hi, sorry to bother you, what did the test record for `CC(=O)c1cc(-c2ccccc2)[nH]c1N1CCCC1` ?
*A* no

*Q* Hi, sorry to bother you, what did the test record for `CN(C)c1nc(N)nc(CSc2ccccn2)n1` ?
*A* no

*Q* Hi, sorry to bother you, what did the test record for CCCn1c(O)c(CN2CCCC(C)C2)c(C)c(C#N)c1=O (configuration not stated) ?
*A* no

*Q* Hi, sorry to bother you, what did the test record for `CCOC(=O)C1CCN(C(=O)C2CCN(S(=O)(=O)N3CCCC3)CC2)CC1` ?
*A* no

*Q* Hi, sorry to bother you, what did the test record for `COc1ccc(N2CCN(C(=O)CNC(=O)c3ccc(C(C)(C)C)cc3)CC2)cc1` ?
*A* no

*Q* Hi, sorry to bother you, what did the test record for `O=C(COc1ccc2c3c(c(=O)oc2c1)CCC3)NC1CCCCC1` ?
*A* yes

*Q* Hi, sorry to bother you, what did the test record for O=C(CN1C(=O)C2C3C=CC(C3)C2C1=O)NCCc1ccccc1Cl (configuration not stated) ?
*A* no

*Q* Hi, sorry to bother you, what did the test record for `Cc1ccc2[nH]c(=O)c(CN(CCCN(C)C)C(=O)Nc3cccc(Cl)c3)cc2c1` ?
*A* no

*Q* Hi, sorry to bother you, what did the test record for `Cc1ccc(C(=O)N2CCN(C(=O)N3CCOCC3)CC2)cc1` ?
*A* no

*Q* Hi, sorry to bother you, what did the test record for `CCOC(=O)c1c(C)c(C(=O)NCCc2ccc(S(N)(=O)=O)cc2)c(C)n1CC` ?
*A* no

*Q* Hi, sorry to bother you, what did the test record for `Fc1ccc2nc(N3CCCCC3)sc2c1` ?
*A* no

*Q* Hi, sorry to bother you, what did the test record for `Nc1nonc1-c1nc2ccccc2n1Cc1ccc(F)cc1` ?
*A* no

*Q* Hi, sorry to bother you, what did the test record for `CCOC(=O)C1CCN(C(=O)C2CCN(S(=O)(=O)CC)CC2)CC1` ?
*A* no

*Q* Hi, sorry to bother you, what did the test record for COc1ccc2[nH]c(=O)c(CN(CC3CCCO3)C(=O)Nc3ccccc3)cc2c1 (configuration not stated) ?
*A* no

*Q* Hi, sorry to bother you, what did the test record for `CC(=O)N1CCN(c2ccc(NCc3ccc(C(C)C)cc3)cc2)CC1` ?
*A* yes

*Q* Hi, sorry to bother you, what did the test record for `C/C(=N\NS(=O)(=O)c1ccc(Br)cc1)c1cccs1` ?
*A* yes

*Q* Hi, sorry to bother you, what did the test record for `O=C(CSc1nc2ccccc2o1)N1c2ccccc2Sc2ccc(Cl)cc21` ?
*A* no

Origin of the recorded values: PubChem BioAssay AID778
